Test: In vitro metabolic stability, human liver microsomes
Format: in vitro ADME
Settings: calculated hepatic extraction ratio
MEASUREMENT KIND: Microsome-Predicted Extraction ratio (EH), Human

COc1ccc(C(=O)/C=C/c2cc(CN3CCN(c4ccnc5cc(Cl)ccc45)CC3)c(O)c(OC)c2)c(OC)c1; 0.72
CC(=O)/C=C/c1ccc(O)c(CN2CCN(c3ccnc4cc(Cl)ccc34)CC2)c1; 0.93
COc1cc(/C=C/C(C)=O)ccc1OCCNc1ccnc2cc(Cl)ccc12; 0.90
COc1cc(/C=C/C(C)=O)cc(CN2CCN(c3ccnc4cc(Cl)ccc34)CC2)c1O; 0.85
COc1ccc(C(=O)/C=C/c2ccc(OCCNc3ccnc4cc(Cl)ccc34)c(OC)c2)c(OC)c1; 0.85

* * *

Assay: In vitro metabolic stability, mouse liver microsomes
Format: in vitro ADME
Settings: calculated hepatic extraction ratio
MEASUREMENT KIND: Microsome-Predicted Extraction ratio (EH), Mouse

COc1ccc(C(=O)/C=C/c2ccc(OCCNc3ccnc4cc(Cl)ccc34)c(OC)c2)c(OC)c1; 0.86
CC(=O)/C=C/c1ccc(O)c(CN2CCN(c3ccnc4cc(Cl)ccc34)CC2)c1; 0.84
COc1cc(/C=C/C(C)=O)cc(CN2CCN(c3ccnc4cc(Cl)ccc34)CC2)c1O; 0.84
COc1cc(/C=C/C(C)=O)ccc1OCCNc1ccnc2cc(Cl)ccc12; 0.85
COc1ccc(C(=O)/C=C/c2cc(CN3CCN(c4ccnc5cc(Cl)ccc45)CC3)c(O)c(OC)c2)c(OC)c1; 0.87

* * *

Biological target: Falcipain 2 (Plasmodium falciparum)
Sequence (Q8I6U4 244-484): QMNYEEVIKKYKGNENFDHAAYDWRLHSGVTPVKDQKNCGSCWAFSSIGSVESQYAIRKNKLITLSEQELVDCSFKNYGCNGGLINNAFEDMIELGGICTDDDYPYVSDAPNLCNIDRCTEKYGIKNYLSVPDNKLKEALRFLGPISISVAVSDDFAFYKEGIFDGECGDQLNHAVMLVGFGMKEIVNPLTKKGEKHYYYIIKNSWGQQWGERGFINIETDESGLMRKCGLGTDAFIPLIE
Test: Falcipain 2 inhibition assay
Assay type: biochemical
Settings: averages of duplicate determinations
MEASUREMENT KIND: Falcipain 2 (IC50)

COc1cc(/C=C/C(C)=O)ccc1OCCN1CCN(c2ccnc3cc(Cl)ccc23)CC1; relatively low potencies
COc1cc(/C=C/C(C)=O)ccc1OCCNc1ccnc2cc(Cl)ccc12; relatively low potencies
COc1cc(/C=C/C(C)=O)cc(CN2CCN(c3ccnc4cc(Cl)ccc34)CC2)c1O; relatively low potencies

* * *

Experiment: Solubility estimates
Assay type: physicochemical
Details: phosphate buffer, pH 6.5
MEASUREMENT KIND: solubility

What measured solubility goes with COc1cc(/C=C/C(C)=O)ccc1OCCNc1ccnc2cc(Cl)ccc12 ? 6.3 to 12.5 µg/mL

// next record COc1cc(/C=C/C(C)=O)ccc1OCc1cn(-c2ccnc3cc(Cl)ccc23)nn1 3.1 to 6.3 µg/mL

COc1cc(/C=C/C(C)=O)cc(CN2CCN(c3ccnc4cc(Cl)ccc34)CC2)c1O , same question. 1.6 to 3.1 µg/mL

Another compound: COc1cc(/C=C/C(C)=O)ccc1OCCN1CCN(c2ccnc3cc(Cl)ccc23)CC1 1.6 to 3.1 µg/mL

Cool, now COc1ccc(C(=O)/C=C/c2ccc(OCCNc3ccnc4cc(Cl)ccc34)c(OC)c2)c(OC)c1 3.1 to 6.3 µg/mL

* * *

Assay: Solubility estimates
Type: physicochemical
Settings: 0.01M HCl, pH 2
MEASUREMENT KIND: solubility

COc1cc(/C=C/C(C)=O)ccc1OCCNc1ccnc2cc(Cl)ccc12; 50 to 100 µg/mL

Need solubility of COc1cc(/C=C/C(C)=O)ccc1OCc1cn(-c2ccnc3cc(Cl)ccc23)nn1 , thanks. 3.1 to 6.3 µg/mL

Hey, just so you know, these numbers are from paper PMC3104272.
